Assay: E. coli acrAB mutant growth effects, primary screen, E. coli filamentation inducers, strain DRC39, OD650, 24 h (AID 1178);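 note: growth measured as culture turbidity by optical density at 650 nm; test concentration not given here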
Settings: higher = more signal, called active from +8 up or from −8 down
Known z-score of a selection of compounds
Kindly provide the number alone.

INSERT INTO measurements (compound, meas_value) VALUES
  ('C=COC[C@@H]1CN2[C@@H](CC[C@@H](C)[C@@H]2c2ccc(Br)cc2)C(=O)O1', -1.03),
  ('CC(C)=CCCC(C)=CCON=C1C[C@@H](O)[C@@H](O)[C@@H]2[C@@H]3C(=O)N(c4ccc(F)cc4F)C(=O)[C@@H]3CC[C@@H]12', 0.781),
  ('COC(=O)C=CCCc1coc(C=CCNC(=O)OC)n1', -1);

Prompt: # z-score lookup, item `CC(=O)OC[C@H]1O[C@H](CCON=C2[C@H]3CCn4c(=O)n(-c5ccccc5)c(=O)n4[C@H]3[C@H](O)[C@@H]3O[C@H]23)C=C[C@@H]1OC(C)=O`
Response: 0.785

Prompt: Ok, now `COC(=O)CC=C[C@@H](C)[C@@H](C=NO[C@@H](C)c1cn([C@H](CO)Cc2ccccc2)nn1)OC`
Response: 0.24

Prompt: Ok, now COC(=O)[C@H](C)NC(=O)CCC1CC(OC(=O)NCCc2ccc(F)cc2)CC2(CCCC(COC(=O)NCCC(C)C)O2)O1 (some centres not stated)
Response: 0.29

Prompt: Ok, now CCOC(=O)[C@H](CC(C)C)NC(=O)CCC1CC(OC(=O)NCc2cccc3ccccc23)CC2(CCCC(COC(=O)NCCc3ccc(Cl)cc3)O2)O1 (some centres not stated)
Response: 0.389

----------
System: Sam68 (KHDRBS1)
Test: Sam68 small-molecule binders, primary screen, biochemical, small-molecule microarray, 635 nm fluorescence (AID 1125);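 note: score merges 667 nm channel intensity with signal to noise over triplicate slides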
Details: small-molecule microarray binding, higher = more signal
measurement_label: composite z-score
Kindly provide the number alone.

Example compounds with recorded composite z-score:
INSERT INTO assay_data (compound, measured_on, meas_value) VALUES
  ('C#CCCCON=C1[C@H]2CCn3c(=O)n(C)c(=O)n3[C@H]2[C@H](O)[C@@H]2O[C@H]12', 'Sam68 (KHDRBS1)', 0.406),
  ('CCCNC(=O)OC[C@H]1O[C@H](CCON=C(C)CCN2CCCc3nc(C)c(C)cc32)C=C[C@@H]1Oc1ccc(OC)cc1', 'Sam68 (KHDRBS1)', 1.29),
  ('CC(C)[C@@H](OCc1ccccc1)[C@H](C)C=NOC[C@@H](O)COCc1ccco1', 'Sam68 (KHDRBS1)', -0.185);

Prompt: Can you look up composite z-score on Sam68 (KHDRBS1) for `CO[C@H]1COC(=O)[C@@H](C)COC(=O)[C@H](COCc2ccccc2)NC(=O)CC=C[C@H]1C` ?
Response: -1.17

Prompt: Ok, now O=C1CCCC=C1C(CCc1ccccc1)OC(=O)c1ccc(Br)cc1 (stereo unspecified)
Response: -1.4

Prompt: Ok, now `C#CCCCON=C1C[C@@H](O)[C@@H](O)[C@@H]2[C@@H]3C(=O)N(C(C)(C)C)C(=O)[C@@H]3CC[C@H]12`
Response: -0.454

Prompt: Ok, now `O=C1[C@H]2[C@H]3[C@H](O)[C@H](O)CC(=NOCc4ccccc4)[C@H]3CC[C@H]2C(=O)N1Cc1ccc2c(c1)OCO2`
Response: -0.18

Prompt: Ok, now CCOC(=O)[C@H](Cc1ccccc1)NC(=O)CCC1CC(OC(=O)NCCc2ccc(F)cc2)CC2(CCCC(COC(=O)NCC3CCCCC3)O2)O1 (stereo partly specified)
Response: 1.3

Prompt: Ok, now `CCCCC#C[C@@H]1C=C[C@H](Oc2cc(OC)c(OC)c(OC)c2)[C@@H](COC(=O)OCC)O1`
Response: -0.25

Prompt: Ok, now `CO[C@H]1COC(=O)CC=C[C@H](C)[C@@H](OC)COC(=O)[C@@H](C)NC(=O)CC=C[C@@H]1C`
Response: -0.0974

Prompt: Ok, now O=C1CCCC=C1C(O)CCOC(c1ccccc1)(c1ccccc1)c1ccccc1 (stereo unspecified)
Response: -1.52

Prompt: Ok, now COc1ccc(O[C@H]2C=C[C@@H](c3ccccc3)O[C@@H]2COC(=O)CCC(C)=NOC(C)CN2CCCc3nc(C)c(C)cc32)cc1 (stereo partly specified)
Response: 1.31

Prompt: Ok, now `CC(C)=CCCC(C)=CCON=C1C[C@@H](O)[C@@H](O)[C@@H]2[C@@H]3C(=O)N(C4CCCCC4)C(=O)[C@@H]3CC[C@@H]12`
Response: 0.493

Prompt: Ok, now `COC(=O)CC=C[C@@H](C)[C@H](OCc1cccc(-c2ccccc2)c1)C1CCCCC1`
Response: -0.679

Prompt: Ok, now `COCOc1ccc(Br)cc1C(=O)[C@@H]1O[C@H]1c1cccc(OC)c1`
Response: -0.395

Prompt: Ok, now CCOC(=O)[C@H](Cc1ccccc1)NC(=O)CCC1CC(OC(=O)NCc2cccc3ccccc23)CC2(CCCC(COC(=O)NCCC(C)C)O2)O1 (stereo partly specified)
Response: -1.08

----------
Known z-score of a selection of compounds
Assay: S. cerevisiae RM11-1a growth modifiers, primary screen, strain RM11-1a, OD600, basal, 24 h (AID 1177);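 note: cultures grown under basal conditions with no added stressor; test concentration not given here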
Details: OD600, 24 h, higher = more signal, called active from +8 up or from −8 down
Kindly provide the number alone.

INSERT INTO assay_data (smiles_code, measurement_label, meas_value) VALUES
  ('COc1ccc(O[C@@H]2[C@H](O)CO[C@@H]2C=Cc2ccccc2)cc1', 'z-score', -0.614);

Prompt: # z-score lookup, item `CCCCc1nc2c(c3c1C[C@H](C)OC3)CN(CCOc1ccccc1)CC2`
Response: -1.49

Prompt: Ok, now `C#CCCCON=C1C[C@@H](O)[C@@H](O)[C@@H]2[C@@H]3C(=O)N(C(C)(C)C)C(=O)[C@@H]3CC[C@H]12`
Response: -0.311

Prompt: Ok, now `O=C1[C@H]2[C@H]3[C@H](O)[C@H](O)CC(=NOC[C@@H](O)COCc4ccco4)[C@H]3CC[C@H]2C(=O)N1Cc1ccccc1`
Response: -1.36

Prompt: Ok, now `CCN1C(=O)[C@@H]2[C@H]3C(=CC[C@@H]2C1=O)C1(OCCCO1)[C@H]1O[C@H]1[C@H]3O`
Response: 1.15

Prompt: Ok, now `COC(=O)NCC=Cc1nc(CCCO)co1`
Response: 0.414

Prompt: Ok, now `CCCCC#C[C@@H]1C=C[C@H](Oc2ccc(C(=O)OC)cc2)[C@@H](COC(=O)OCC)O1`
Response: -0.37

Prompt: Ok, now `C=CC[C@@H]1C=C[C@H](ON=C(C)CCC(=O)OC[C@H]2O[C@H](c3ccccc3)C=C[C@@H]2Oc2ccc(OC)cc2)[C@@H](CO)O1`
Response: -0.0293

----------
Assay: small-molecule binders of probe aNOTCH3, primary screen, biochemical, small-molecule microarray, 635/667 nm fluorescence (AID 1120);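 note: probe is a biotin-tagged antibody raised against NOTCH3 rather than NOTCH3 protein; score merges spot fluorescence near 667 nm with spot signal to noise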
Details: higher = more signal
measurement_label: composite z-score
Kindly provide the number alone.

Example compounds with recorded composite z-score:
INSERT INTO assay_data (compound, meas_value) VALUES
  ('CCOC(=O)[C@H](CC(C)C)NC(=O)CCC1CC(OC(=O)NCc2cccc3ccccc23)CC2(CCCC(COC(=O)NCCOC)O2)O1 (stereo partly specified)', 0.0306),
  ('CC(C)(C)N1C(=O)[C@H]2[C@H]3[C@H](O)[C@H](O)CC(=O)[C@H]3CC[C@H]2C1=O', -0.0581),
  ('CC(CCN1CCc2nc(-c3ccccc3)c(-c3ccccc3)cc2C1)=NOC[C@@H](O)[C@H]1O[C@@H]2OC(C)(C)O[C@@H]2[C@H]1O', -0.051);

Prompt: # composite z-score lookup, item CCOC(=O)[C@H](CC(C)C)NC(=O)CCC1CC(OC(=O)NCCc2ccc(F)cc2)CC2(CCCC(COC(=O)NCCC(C)C)O2)O1 (stereo partly specified)
Response: 0.128

Prompt: Ok, now `CC(C)(C)N1C(=O)[C@H]2[C@H]3[C@H](O)C=CC(=O)[C@@H]3CC[C@H]2C1=O`
Response: -0.0584

Prompt: Ok, now `COC(=O)[C@@H]1CC[C@H](C)[C@@H](c2ccc(C)cc2)N1C(=O)c1ccc(C=NO[C@H](C)c2cn([C@@H]3COC[C@H]3O)nn2)cc1`
Response: -0.125

Prompt: Ok, now O=C1CCCC=C1C(O)CCOC(c1ccccc1)(c1ccccc1)c1ccccc1 (stereo unspecified)
Response: -0.158

----------
Known z-score of a selection of compounds
Test: S. cerevisiae RM11-1a growth modifiers, primary screen, strain RM11-1a, OD600, basal, 24 h (AID 1177);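 note: cultures grown under basal conditions with no added stressor; test concentration not given here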
Details: OD600, 24 h, higher = more signal, called active from +8 up or from −8 down
Kindly provide the number alone.

Prompt: # z-score lookup, item `O=C1C=C[C@@H](O)[C@@H]2[C@@H]3C(=O)N(C[C@@H]4CCCO4)C(=O)[C@@H]3CC[C@@H]12`
Response: 0.0539
